Target: JAK2 JH2 WT (V536-D812) [W659A, W777A, F794H solubilizing mutations] (Homo sapiens, UniProt O60674, F794H/W659A/W777A)
Construct: **JAK2 JH2 WT (V536-D812) [W659A, W777A, F794H solubilizing mutations]; C-thrombin-avi-His6; thrombin cleavage site (C); His6 (C); purchased Biortus
Sequence (O60674 536-812 W659A/W777A/F794H): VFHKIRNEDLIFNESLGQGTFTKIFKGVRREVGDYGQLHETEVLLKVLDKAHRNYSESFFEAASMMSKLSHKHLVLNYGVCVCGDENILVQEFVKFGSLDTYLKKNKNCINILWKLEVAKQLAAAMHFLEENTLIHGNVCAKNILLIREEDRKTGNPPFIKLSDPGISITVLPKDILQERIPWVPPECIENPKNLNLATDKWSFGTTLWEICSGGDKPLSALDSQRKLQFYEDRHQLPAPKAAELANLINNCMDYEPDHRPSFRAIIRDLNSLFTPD
Assay: Surface Plasmon Resonance (SPR) binding assay, JAK2 JH2 domain
Experimental: Selected compounds of the present disclosure were tested in a Surface Plasmon Resonance (SPR) Assay to measure their binding kinetics and affinity for proteins of interest. Prepare buffer: 50 mM HEPES pH 7.5, 150 mM NaCl, 0.05% (v/v) Tween, and 10% (v/v) glycerol were combined and pH was adjusted to 7.5, then filtered. 5 mM DTT, was added, and buffer without DMSO was reserved for compound resuspension. […]
pKd: −log10 of the molar value.
Experimental endpoint: pKd

> print(dat)
                                   compound         result
1  CNC(=O)c1nnc(NC(=O)C2CC2)cc1Nc1cccc(-c2cnn([C@H]3C[C@@H]([C@H](OC)c4ccccn4)C3)c2)c1OC (single isomer, unassigned)   7.30 to 8.00
2  COc1c(Nc2cc(NC(=O)C3CC3)nn3cc(C)nc23)ccc(C)c1-c1ccc(C(=O)N(C)Cc2cn(C)nc2C)nc1  8.00 to 11.00
3  CNC(=O)c1nnc(NC(=O)C2CC2)cc1Nc1cccc(-c2cnn(C3CC(C(O)c4ccccn4)C3)c2)c1OC (stereo not shown)  8.00 to 11.00
4  CNC(=O)c1nnc(NC(=O)C2CC2)cc1Nc1cccc(-c2ccc(C3CN(Cc4cccnc4C(F)F)C3)nc2)c1OC   6.30 to 7.30
5  CNC(=O)c1nnc(NC(=O)C2CC2)cc1Nc1cccc(-c2cnn(C3CN(Cc4cccc(C(C)O)n4)C3)c2)c1OC (stereo not shown)  8.00 to 11.00
6  CNC(=O)c1nnc(NC(=O)C2CC2)cc1Nc1cccc(-c2cnn(C3CN(Cc4cccc(C5CCC5)n4)C3)c2)c1OC  8.00 to 11.00
7  CNC(=O)c1nnc(NC(=O)C2CC2)cc1Nc1cccc(-c2cnn([C@H]3C[C@H](Cc4cccc(C#N)n4)C3)c2)c1OC  8.00 to 11.00
